Give pIC50 for every item shown.
target_entity: PRMT5 (Homo sapiens)
Construct: purchased Viva (custom protein)
assay_text: PRMT5 IC50 assay with no cofactor
Type: biochemical
pIC50: −log10 of the molar value.

Some molecules with recorded pIC50:
{"structure_smiles": "Cc1c(OCc2cnco2)ccc2c1CCN(C[C@@H](O)CNC(=O)c1cc(N[C@H]3C[C@H](C(=O)N4CCC4)C3)ncn1)C2", "measure_name": "pIC50", "assay_result": "≤ 5.30"}
{"structure_smiles": "Cc1c(OCc2cnco2)ccc2c1CCN(C[C@@H](O)CNC(=O)c1ccc3c(c1)CCN(C(=O)c1ccc(Br)cc1)C3)C2", "measure_name": "pIC50", "assay_result": "5.30 to 6.30"}
{"structure_smiles": "COCCN(C)c1cc(C(=O)NC[C@H](O)CN2CCc3cc(OCc4ocnc4C)ccc3C2)cc(NC2CCN(C(C)=O)CC2)n1", "measure_name": "pIC50", "assay_result": "5.30 to 6.30"}
{"structure_smiles": "CCC(=O)N1CCN(c2cc(C(=O)NC[C@H](O)CN3CCc4c(ccc(OCc5cnco5)c4Cl)C3)cc(NC3CCC3)n2)CC1", "measure_name": "pIC50", "assay_result": "5.30 to 6.30"}

For every item below, please supply its pIC50.
1. Cc1ncoc1COc1ccc2c(c1C)CCN(C[C@@H](O)CNC(=O)c1cccc(NC3CCC3)c1)C2
2. Cc1ncoc1COc1cc(F)c2c(c1C)CCN(C[C@@H](O)CNC(=O)c1ccnc(NC3CCC3)c1)C2

1: ≤ 5.30; 2: 5.30 to 6.30

For every item below, please supply its pIC50.
1. CC(C)CC(=O)N1CCC(Nc2cc(C(=O)NC[C@H](O)CN3CCc4cc(OCc5cnco5)ccc4C3)ccn2)CC1
2. CCC(=O)N1CC(Nc2cc(C(=O)NC[C@H](O)CN3CCc4c(ccc(OCc5cnco5)c4C)C3)ccn2)C1
3. Cc1c(OCc2cnco2)ccc2c1CCN(C[C@@H](O)CNC(=O)c1ccnc(Nc3cccnc3)c1)C2

["5.30 to 6.30", "5.30 to 6.30", "≤ 5.30"]

For every item below, please supply its pIC50.
1. Cc1c(OCc2cnco2)ccc2c1CCN(C[C@@H](O)CNC(=O)c1ccnc(NC3CCN(C(=O)CC(C)C)CC3)c1)C2
2. Cc1ncoc1COc1ccc2c(c1)CCN(C[C@@H](O)CNC(=O)c1cc(NC3CCC3)nc(N3CCN(C(=O)C4CC4)CC3)c1)C2

["5.30 to 6.30", "6.30 to 7.30"]

Query CC(C)N1CCN(c2cc(C(=O)NC[C@H](O)CN3CCc4c(ccc(OCc5cnco5)c4Cl)C3)cc(NC3CCC3)n2)CC1 yields pIC50 of 5.30 to 6.30

* * *

target_entity: PRMT5 (Homo sapiens, UniProt O14744)
Construct: purchased Viva (custom protein)
Sequence (O14744 whole entry): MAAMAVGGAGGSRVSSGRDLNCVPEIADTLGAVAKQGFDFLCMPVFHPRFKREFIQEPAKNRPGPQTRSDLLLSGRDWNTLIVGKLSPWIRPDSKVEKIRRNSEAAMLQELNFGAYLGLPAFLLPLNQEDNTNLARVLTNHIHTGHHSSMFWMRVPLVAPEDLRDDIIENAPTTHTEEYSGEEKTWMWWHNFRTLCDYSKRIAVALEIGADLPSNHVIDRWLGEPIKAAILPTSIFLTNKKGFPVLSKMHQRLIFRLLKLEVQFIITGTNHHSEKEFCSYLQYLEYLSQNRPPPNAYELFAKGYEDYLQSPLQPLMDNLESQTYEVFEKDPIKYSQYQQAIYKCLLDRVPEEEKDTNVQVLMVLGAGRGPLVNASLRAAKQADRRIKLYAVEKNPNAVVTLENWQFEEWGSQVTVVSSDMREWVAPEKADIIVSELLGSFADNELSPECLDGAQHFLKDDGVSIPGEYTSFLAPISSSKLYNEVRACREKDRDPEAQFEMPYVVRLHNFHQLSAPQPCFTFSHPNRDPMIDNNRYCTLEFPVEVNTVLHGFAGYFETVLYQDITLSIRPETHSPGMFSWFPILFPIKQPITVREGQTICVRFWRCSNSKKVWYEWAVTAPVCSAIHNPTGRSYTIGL
Sequence (Q9BQA1 whole entry partner): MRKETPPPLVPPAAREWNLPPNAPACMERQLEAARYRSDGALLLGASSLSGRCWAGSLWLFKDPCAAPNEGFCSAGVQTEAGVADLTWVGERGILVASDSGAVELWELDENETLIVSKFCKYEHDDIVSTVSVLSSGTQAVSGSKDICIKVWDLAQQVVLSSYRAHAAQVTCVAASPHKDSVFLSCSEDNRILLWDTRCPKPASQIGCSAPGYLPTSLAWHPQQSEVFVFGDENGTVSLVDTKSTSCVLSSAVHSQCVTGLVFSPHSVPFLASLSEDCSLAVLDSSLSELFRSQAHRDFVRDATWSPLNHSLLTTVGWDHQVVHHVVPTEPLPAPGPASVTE
assay_text: PRMT5 IC50 assay with no cofactor
Format: biochemical
condition_notes: read-out: No Co-factor IC50
Excerpt: Table 1a indicates IC50 values (μM) against PRMT5 for exemplary compounds in the presence of SAM as cofactor, with no cofactor and with MTA as cofactor, respectively (columns 3-5). […] The Ki values can be calculated from the IC50 values as described in the Examples section. As detailed in the Examples section, for the assay performed in the presence of SAM, IC50=Ki×1.5 (Ki=IC50/1.5). For the assay performed in the presence of MTA, IC50=Ki×13.5 (Ki=IC50/13.5). […]
Give IC50 for every item shown.

{"molecule": "CCC(=O)N1CCN(c2nc(NC3COC3)cc(C(=O)NC[C@H](O)CN3CCc4c(ccc(OCc5cnco5)c4Cl)C3)n2)CC1", "target_entity": "PRMT5 (Homo sapiens, UniProt O14744)", "assay_result": "0.5 to 5 µM"}
{"molecule": "CC(C)C(=O)N1CCN(c2nc(NC3COC3)cc(C(=O)NC[C@H](O)CN3CCc4c(ccc(OCc5cnco5)c4Cl)C3)n2)CC1", "target_entity": "PRMT5 (Homo sapiens, UniProt O14744)", "assay_result": "0.5 to 5 µM"}

For every item below, please supply its IC50.
1. O=C(NC[C@H](O)CN1CCc2cc(OCc3cnco3)ccc2C1)c1ccc(OC2CCN(Cc3ccccc3)CC2)cc1
2. O=C(NC[C@H](O)CN1CCc2c(ccc(OCc3cnco3)c2Cl)C1)c1ccnc(NC2CCCC2)c1
3. O=C(NC[C@H](O)CN1CCc2c(ccc(OCc3cnco3)c2Cl)C1)c1cncc(NC2CCOC2)c1 (stereo partly drawn)
4. O=C(NC[C@H](O)CN1CCc2c(ccc(OCc3cnco3)c2Cl)C1)c1cc(NC2COC2)nc(N2CCCCC2)n1
5. CCN1CCN(c2cc(C(=O)NC[C@H](O)CN3CCc4cc(OCc5cnco5)ccc4C3)cc(NC3CCC3)n2)CC1
6. O=C(NC[C@H](O)CN1CCc2c(ccc(OCc3cn[nH]c3)c2Cl)C1)c1ccnc(NC2CCC2)c1

1: 0.5 to 5 µM; 2: 0.5 to 5 µM; 3: ≥ 5 µM; 4: 0.5 to 5 µM; 5: 0.5 to 5 µM; 6: ≥ 5 µM

For every item below, please supply its IC50.
1. Cc1c(OCc2cnco2)cc(F)c2c1CCN(C[C@H](O)CNC(=O)c1ccnc(NC3CCC3)c1)C2
2. CN1CCN(c2nc(NC3COC3)cc(C(=O)NC[C@H](O)CN3CCc4c(ccc(OCc5cnco5)c4Cl)C3)n2)CC1
3. O=C(NC[C@H](O)CN1CCc2cc(OCc3cnco3)ccc2C1)c1ccc(OC2CCN(Cc3ccncc3)CC2)cc1
4. CCC(=O)N1CCN(c2nc(NC3COC3)cc(C(=O)NC[C@H](O)CN3CCc4cc(OCc5cnco5)ccc4C3)n2)CC1

≥ 5 µM
0.5 to 5 µM
0.5 to 5 µM
0.5 to 5 µM

* * *

target_entity: PRMT5 (Homo sapiens, UniProt O14744)
Construct: purchased Viva (custom protein)
assay_text: PRMT5 IC50 assay in the presence of MTA as cofactor
Assay type: biochemical
condition_notes: PRMT5, MTA as cofactor
pIC50: −log10 of the molar value.
Give pIC50 for every item shown.

{"structure_smiles": "CC(=O)N1CCC(Nc2cc(C(=O)NC[C@H](O)CN3CCc4cc(OCc5ocnc5C)ccc4C3)cc(C(C)C)n2)CC1", "pIC50": "> 7.30"}
{"structure_smiles": "CC(=O)N1CCC(Nc2cncc(C(=O)NC[C@H](O)CN3CCc4cc(OCc5cnco5)ccc4C3)c2)CC1", "pIC50": "6.30 to 7.30"}

Kindly consider the entry below.
Query CC(=O)N1CCC(Nc2cncc(C(=O)NC[C@H](O)CN3CCc4c(ccc(OCc5cnco5)c4C)C3)c2)CC1 yields pIC50 of 6.30 to 7.30

* * *

target_entity: PRMT5 (Homo sapiens, UniProt O14744)
Construct: purchased Viva (custom protein)
assay_text: PRMT5 IC50 assay in the presence of MTA as cofactor
Format: biochemical
condition_notes: PRMT5, MTA as cofactor
measure_name: IC50

Some molecules with recorded IC50:
{"structure_smiles": "Cc1ncoc1COc1ccc2c(c1)CCN(C[C@@H](O)CNC(=O)c1cc(NC3CCCCC3)ncn1)C2", "IC50": "50 to 500 nM"}
{"structure_smiles": "CCC(=O)N1CCN(c2nc(NC3COC3)cc(C(=O)NC[C@H](O)CN3CCc4cc(OCc5ocnc5C)ccc4C3)n2)CC1", "IC50": "50 to 500 nM"}
{"structure_smiles": "Cc1ncoc1COc1ccc2c(c1I)CCN(C[C@@H](O)CNC(=O)c1ccnc(NC3CCC3)c1)C2", "IC50": "500 to 5000 nM"}

For every item below, please supply its IC50.
1. O=C(NC[C@H](O)CN1CCc2cc(OCc3cnco3)ccc2C1)c1cc(NC2CCC2)ccn1
2. O=C(NC[C@H](O)CN1CCc2c(ccc(OCc3cnco3)c2Cl)C1)c1ccc(OC2CCOCC2)cc1
3. CC(=O)N1CC(Nc2cc(C(=O)NC[C@H](O)CN3CCc4c(ccc(OCc5cnco5)c4Cl)C3)ccn2)C1
4. Cc1c(OCc2cnco2)ccc2c1CCN(C[C@@H](O)CNC(=O)c1ccc3c(c1)CCN(C(=O)c1ccc(Br)cc1)C3)C2

50 to 500 nM
500 to 5000 nM
50 to 500 nM
50 to 500 nM
